# Assayed system: UniProt:Q13627
Recorded endpoint: IC50

Lookup: What does the data say about its IC50? Entry: C(#CC1CCNCC1)c1ccc2c(-c3ccncc3)c[nH]c2n1 [Compound 97]
Found: 100 to 1000 nM
